- tgt: A2B receptors endogenously expressed in HEK293 cells (Homo sapiens (Human), UniProt P29275)
- Sequence (P29275 whole entry): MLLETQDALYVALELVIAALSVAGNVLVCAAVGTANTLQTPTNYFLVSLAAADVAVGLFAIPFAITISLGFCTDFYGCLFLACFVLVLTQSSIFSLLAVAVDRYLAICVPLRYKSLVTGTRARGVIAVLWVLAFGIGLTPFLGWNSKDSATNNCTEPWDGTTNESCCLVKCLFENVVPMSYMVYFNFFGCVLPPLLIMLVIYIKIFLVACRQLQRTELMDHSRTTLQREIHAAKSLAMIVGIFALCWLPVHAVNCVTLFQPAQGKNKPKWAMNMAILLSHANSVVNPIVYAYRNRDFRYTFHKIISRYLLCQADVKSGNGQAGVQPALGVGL
- test-name: cAMP assay (a), HEK293 cells with A2B receptors endogenously expressed
- Type: cell-based
- condition-context: stimulated with 5 μM NECA
recorded-metric: IC50 (nM)

sample-smiles	recorded-metric	measured
Fc1cnccc1-c1nnc(Nc2nccs2)nc1-c1cccnc1	IC50	2000
Fc1cccc(Nc2nnc(-c3ccncc3F)c(-c3cccnc3)n2)c1	IC50	630
Fc1cnccc1-c1nnc(Nc2cccnc2)nc1-c1cccnc1	IC50	400
CNC(=O)Nc1nnc(-c2ccncc2F)c(-c2cccnc2)n1	IC50	6920
Cc1nnc(Nc2nnc(-c3ccncc3F)c(-c3cccnc3)n2)s1	IC50	3980
